Data credit: the supplement of paper PMC12042874

Consider the following substances; for each one, report its amyloid nucleation score.
- MEASUREMENT_PROTOCOL: amyloid nucleation score (Sup35N fusion, yeast selection) (log enrichment); library NNK1; higher = more nucleation; inactive = no reads after selection;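 also: zero at mode of non-aggregating sequences after 7 days selection at 30°C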
Give only the figure.

Item ILFRVVSRVGISRYGWKRVL has what recorded amyloid nucleation score?
-0.241

Further, for SPFDKIVAHGSRLML ?
-0.274

Further, for HGLVNG ?
0.437

Further, for TLHVEWSSVIAMLFKMSCGL ?
-0.785

Further, for RWYSHFSAMQWGATLCFWGL ?
2.64

Further, for FDFCVEIWLRVFLNMWGRLR ?
0.689

Further, for TDVSVKLSVMMH ?
1.53

Further, for VFTSAD ?
0.093

====

- MEASUREMENT_PROTOCOL: amyloid nucleation score (Sup35N fusion, yeast selection) (log enrichment); library NNK1; higher = more nucleation; inactive = no reads after selection
Consider the following substances; for each one, report its amyloid nucleation score.
Give only the figure.

Item SRIFCTWPVSVIYNRADSAQ has what recorded amyloid nucleation score?
0.838

Further, for VTHGHVGTVGSWVVRTTAFM ?
-0.937

Further, for LYVPCAIVGSLTRG ?
1.06

Further, for PLHCSVGRIRSGLMCLKLTC ?
-0.17

Further, for NDHDGEFDD ?
0.239

Further, for LAVFSNVLLYVEDMSALIRG ?
0.129

Further, for KVFINVYIKRQRNKCRRSNR ?
5.9

Further, for DIALMWLLLVHRDYT ?
-1.07

Further, for DSVLNGSFAACLDWDALPGQ ?
0.272

Further, for FGTFCMGRPYRYYGCNGGFR ?
0.674

Further, for SKLFLGGLPCTQYWPRMCMV ?
-0.356

Further, for MMTGFNNIPTIKQLGSCAHY ?
0.291

Further, for IGFHSMDFEQYFCYFSVKTK ?
0.616

Further, for EKRLYGYLKDHLE ?
-0.605

Further, for YGHLVYTDHVWRRFETVKG ?
0.661

Further, for WSKLYIAK ?
-0.69

Further, for IVNVAGNV ?
0.803

Further, for TVVNSVGYYAPKLPSACLGN ?
0.638

Further, for RYRSVVIPRVHAIEVIYAAC ?
-0.378

Further, for NMYKSMNQSTE ?
-0.705

Further, for DFAFYTVTLCFE ?
0.809

Further, for SRKCGDVCSKDGRPVCPGTE ?
1.67

Further, for EGQTGLLVWYGSHSVRLGNF ?
-0.957

Further, for PWDYVSLSI ?
-0.424

Further, for NVDFTSYMLDMM ?
0.042

Further, for IGGHRYGVDKY ?
-0.194

Further, for PGKRHGFMLRDFAMPKLSYH ?
-0.918

Further, for SVVNDFVYRL ?
-0.588

Further, for NNYNYLYTYNMQNQKQFIFM ?
7.28

Further, for KKFRVGVDLSRCTLGLENYK ?
4.3

Further, for RSQVSSFTYSPSRATPKRRL ?
0.508

Further, for CNYCIWPARFVVIHDAMCVS ?
-0.98

Further, for NINFGVVSYSVYMLL ?
6.65

Further, for LWTFGDRSVWLDDSMRWVPR ?
-0.145

Further, for PVDNLFNFLSGSCAISNFQK ?
0.638
